- assay-explanation: gradient 5% acetonitrile 3 min, to 50% in 2 min, to 85% in 15 min, held 3 min, 100 µL/min
- measurement-setup: column: Zorbax Extend-C18 2.1 x 50 mm; eluents: water / acetonitrile, 0.1% formic acid
metric-name: RP-LC retention time
Respond with the figure and its unit, in that order.

Record CCC(CC)C(=O)Nc1c(-c2ccccc2)nc2cc(C)ccn12 . Reported RP-LC retention time: 654 s

Measured RP-LC retention time of O=C(Cn1cccc(-c2nc(-c3ccc(F)cc3)no2)c1=O)Nc1ccc(Cl)cc1 : 950 s

Recorded RP-LC retention time (molecule O=C(NCCc1cccs1)c1cc[nH]c1C1CCCNC1 (centres undefined) ): 614 s

Please fill in: RP-LC retention time reported for O=C1C2C3C=CC(C3)C2C(=O)N1CCN1CCN(Cc2ccc([N+](=O)[O-])cc2)CC1 (centres undefined) = 563 s

Recorded result, CC1(C(=O)NCc2ccccc2)CCCN(C(=O)Nc2cccc(Br)c2)C1 (centres undefined) , RP-LC retention time: 983 s

Summary for this molecule, COc1ccc(NC(=O)NCC23CCC=C2N(C)C(=O)CC3)cc1 (centres undefined) : RP-LC retention time is 745 s

// recorded RP-LC retention time for CCN(CC)c1nc2cc(C(=O)OC)ccc2c(=O)n1-c1cc(F)cc(F)c1 : 1180 s

The measured RP-LC retention time associated with Cn1c(=O)c2nc(S(=O)(=O)CCC(=O)Nc3ccc(Cl)cc3F)n(C)c2n(C)c1=O reads 781 s

The molecule identified as CCOC(=O)c1nn(-c2ccc(C)cc2)c(=O)cc1NC(=O)c1cc(Cl)ccc1OC registered its RP-LC retention time at 1140 s

====

- assay-explanation: gradient 5% acetonitrile 3 min, to 50% in 2 min, to 85% in 15 min, held 3 min, 100 µL/min
- measurement-setup: column: Zorbax Extend-C18 2.1 x 50 mm; eluents: water / acetonitrile, 0.1% formic acid
Please respond with reported RP-LC retention time for every item in the list.
State the answer as a number, implicitly in s.

Input O=C(C1CCCCC1)N1CCc2nc(-c3ccc(Cl)cc3)ncc2C1 . Output RP-LC retention time: 1180

Entry CCOC(=O)c1c(NC(=O)CSc2nc(=O)n3cccc(C)c3n2)sc2c1CCC2 , RP-LC retention time reported as 950

Reported RP-LC retention time ( COc1ccc(CCc2nc3nccc(-c4ccsc4)n3n2)cc1 ) = 946

The measured RP-LC retention time associated with COc1ccc(NC(=O)Cn2ncc3c(N4CCN(c5ccccn5)CC4)ncnc32)cc1Cl reads 642

The compound identified as O=C(NCc1ccco1)c1ccc2c(c1)CCCN2C(=O)c1cccc(Cl)c1 registered its RP-LC retention time at 889

Record COc1cc(NC(=O)c2ccccc2)c(OC)cc1NC(=O)C=C(C)C , field RP-LC retention time: 887

The compound identified as Cc1ccc(C)c(CS(=O)(=O)N2CCC(CN3CCCC(C)C3)CC2)c1 (centres undefined) registered its RP-LC retention time at 723

Reported RP-LC retention time for CCCn1c(=O)sc2cc(S(=O)(=O)N3CCC(C(=O)NCc4cccs4)CC3)ccc21 was 880

The recorded RP-LC retention time for entry Cc1sc(NC(=O)CCC2CCCCC2)nc1-c1ccc2c(c1)N(C)C(=O)CO2 equals 1290

====

- assay-explanation: gradient 5% acetonitrile 3 min, to 50% in 2 min, to 85% in 15 min, held 3 min, 100 µL/min
- measurement-setup: column: Zorbax Extend-C18 2.1 x 50 mm; eluents: water / acetonitrile, 0.1% formic acid
# note: boundary value 900 s maps to n; RP-LC retention time below it maps to y

Query: In plain terms, does CCC(C(=O)N1CCN(c2ccccn2)CC1)n1c(C)c2cnn(-c3ccccc3)c(=O)c2c1C (centres undefined) come in under 900 s for RP-LC retention time?
Reply: y

Query: Determine whether this compound shows RP-LC retention time lower than 900 s (ties excluded): CN(C)C(=O)c1n[nH]c2c1CN(C(=O)CCC(=O)c1ccc(F)cc1)CC2
Reply: y

Query: Confirm or reject: RP-LC retention time of O=C(CCn1c(N2CCCC2)nc2ccsc2c1=O)N1CCN(c2ccccn2)CC1 lies strictly below 900 s
Reply: y

Query: Field: below-cutoff. Rule: recorded RP-LC retention time strictly less than 900 s. Subject: COc1ccc(N2CC(c3nc(-c4ccc(Cl)cc4)no3)CC2=O)cc1OC (centres undefined)
Reply: n

Query: Lab note: confirm whether the reported RP-LC retention time for this compound is below 900 s, equality not counting. compound: O=C(Nc1ccc(F)cc1Cl)C1CCN(C(=O)c2cccn2-c2cccnc2)CC1
Reply: y

Query: Is the reported RP-LC retention time for CC(C)CCNC(=O)C1(C)CN(S(=O)(=O)c2ccccc2)CC(=O)N1Cc1ccccc1 (centres undefined) strictly below 900 s?
Reply: n

Query: Below 900 s on RP-LC retention time? Entry COc1ccc(-c2noc(C3CCCN3C(=O)c3ccoc3)n2)cc1 (centres undefined)
Reply: y

Query: Lab note: confirm whether the reported RP-LC retention time for this compound is below 900 s, equality not counting. compound: O=C(Cn1nc2c(N3CCCCCC3)nccn2c1=O)Nc1ccc2c(c1)OCO2
Reply: y

Query: Could you please tell me whether RP-LC retention time recorded for O=C(Cn1nc(C(=O)N2CCOCC2)c2ccccc21)Nc1ccc(F)cc1 is less than 900 s?
Reply: y

Query: In the record for COc1ccc(S(=O)(=O)Nc2cc(N3CCCS3(=O)=O)ccc2OC)cc1F , is RP-LC retention time less than 900 s?
Reply: y

Query: Determine if COc1ccc(-n2cc(C(=O)Nc3ccc(OC)cc3OC)nn2)cc1 shows RP-LC retention time strictly lower than 900 s.
Reply: n

Query: Check if RP-LC retention time falls below 900 s for COC(=O)C1=CN(c2ccc(OC)c(Cl)c2)c2ccccc2S1(=O)=O .
Reply: y

Query: I wonder whether CCc1nc(-c2csc(S(=O)(=O)N3CCCC(C(=O)Nc4cc(C)ccc4C)C3)c2)no1 (centres undefined) has RP-LC retention time below 900 s. Can you tell?
Reply: n

Query: Identify whether the compound Cc1ccc(C)c(NC(=O)Cn2cnc(-c3noc(-c4ccncc4)n3)c2)c1 records RP-LC retention time below 900 s.
Reply: y

Query: I'd appreciate it if you could check whether CCCn1c(=O)sc2cc(S(=O)(=O)N3CCC(C(=O)Nc4ccc(C)cc4C)CC3)ccc21 has RP-LC retention time smaller than 900 s.
Reply: n

Query: In the record for CCn1c(=O)c2c(cc(C)n2C)n(CC(=O)Nc2ccc(C)c(F)c2)c1=O , is RP-LC retention time less than 900 s?
Reply: y

====

- assay-explanation: gradient 5% acetonitrile 3 min, to 50% in 2 min, to 85% in 15 min, held 3 min, 100 µL/min
- measurement-setup: column: Zorbax Extend-C18 2.1 x 50 mm; eluents: water / acetonitrile, 0.1% formic acid
condition met if RP-LC retention time is below 700 s. condition not met if not; exact matches included in condition not met.

Query: For this compound, is RP-LC retention time lower than 700 s? C=CCNC(=O)c1cn(-c2cc(-c3nc(C(C)C)no3)ccn2)cn1
Reply: condition not met

Query: Given the entry Cc1ccccc1CN1C(=O)N(c2cccc(F)c2)c2ncccc2S1(=O)=O , would its reported RP-LC retention time be below 700 s?
Reply: condition not met

Query: Does this compound meet the criterion RP-LC retention time < 700 s? COc1ccc(C(=O)N2CCCN(c3nnc4ccc(Cl)cn34)CC2)cn1
Reply: condition met

Query: Field: below-cutoff. Rule: recorded RP-LC retention time strictly less than 700 s. Subject: COc1ccc(C2(C(=O)N3CCC(Cc4ncc(C)n4CC4CC4)C3)CC2)cc1 (centres undefined)
Reply: condition met

Query: Decide: RP-LC retention time of O=C(NCCC1=CCCCC1)c1nnc(-c2ccc(S(=O)(=O)N3CCCC3)cc2)o1 strictly below 700 s?
Reply: condition not met

Query: Criterion: RP-LC retention time strictly below 700 s. Is it met by COc1ccccc1-c1noc(-c2cn(C)c3ccc(F)cc3c2=O)n1 ?
Reply: condition not met

Query: Determine whether this compound shows RP-LC retention time lower than 700 s (ties excluded): CCN1CCN(c2cc(C)c3cc(NC(=O)c4ccc(Br)cc4)ccc3n2)CC1
Reply: condition met

Query: Dear reviewer, please state whether CCN1CCN(CCCNS(=O)(=O)c2cc(-c3nc(C)c(C)s3)sc2C)CC1 has RP-LC retention time strictly beneath 700 s.
Reply: condition met

Query: Problem: For the compound Cc1ccc(C)c(-c2csc(Nc3ccc(F)cn3)n2)c1 , is RP-LC retention time under 700 s?
Reply: condition not met

Query: Does the reported RP-LC retention time of Cc1c(Cl)cccc1S(=O)(=O)N1CCc2c(c(-c3nnc(-c4ccc(F)cc4)o3)nn2C)C1 stay below 700 s?
Reply: condition not met

Query: Hello, I'm reviewing records and need to know if RP-LC retention time of CCC(=O)Nc1cc2c(cc1S(=O)(=O)c1ccc(C)cc1)n(C)c(=O)n2C is below 700 s. Could you check?
Reply: condition not met

Query: Lab note: RP-LC retention time threshold 700 s. Does this compound come in strictly under it? Cc1cc(C(=O)Nc2ccc(Cl)cc2)nc2ccnn12
Reply: condition not met

Query: Lab log: compare recorded RP-LC retention time with 700 s; is it strictly lower for COc1ccc(NC(=O)N2CCC3(C2)C(=O)N(C)c2ccccc23)cc1OC (centres undefined) ?
Reply: condition not met

Query: Decide: RP-LC retention time of CCOc1ccc(-c2noc(Cc3nc(-c4cccc(OC)c4)cs3)n2)cc1 strictly below 700 s?
Reply: condition not met

Query: Please check: RP-LC retention time for Cn1cc(C2=C(c3cn(C4CCN(Cc5ccccn5)CC4)c4ccccc34)C(=O)NC2=O)c2ccccc21 , strictly under 700 s or not?
Reply: condition not met

Query: State whether 700 s exceeds RP-LC retention time recorded for COC(=O)c1c(-c2cccc(F)c2)noc1NCCc1c(C)noc1C .
Reply: condition not met

Query: In the record for O=C(c1ccco1)N1CCN(C(=O)C2CCN(c3ccc(N4CCCCC4)nn3)CC2)CC1 , is RP-LC retention time less than 700 s?
Reply: condition met

Query: Here's an entry: CCn1cc(C)c(C(=O)O)c1CC(=O)NCCCN1CCN(C)CC1 . Is its RP-LC retention time below 700 s?
Reply: condition met

Query: Please determine if COc1ccc2nc(NC(=O)Cn3nc(C(=O)N4CCOCC4)c4ccccc43)sc2c1 is below 700 s in terms of RP-LC retention time.
Reply: condition not met

Values compiled from the METLIN SMRT retention time set (Domingo-Almenara et al. 2019).
